# Tested on: HCT-15 colon
# TEST_NAME: NCI tumour cell line growth inhibition, 48 h
MEASURED_ATTRIBUTE: GI50

Worked examples, 5 compounds total:
COMPOUND	STUDY_SYSTEM	GI50
COn1cc(C(=O)N=C(SC)SC)c2ccccc21	HCT-15 colon	22.4 µM
CCCCCCCCCCCCCCCC(N)c1ccccc1 (stereo unspecified)	HCT-15 colon	1.67 µM
CN1CCN(Cc2ccc(NC(=O)c3[nH]ncc3Nc3cc(OC4CCCC4)ncn3)cc2)CC1	HCT-15 colon	1.24 µM
C[C@H](c1ccc(Cl)cc1[N+](=O)[O-])N1C(=O)c2cc(I)ccc2NC(=O)[C@H]1c1ccc(Cl)cc1	HCT-15 colon	> 100 µM
NC(=S)N=Nc1c(O)[nH]c2ccccc12	HCT-15 colon	139 µM

Please find the next compound below.
I'd like to know its GI50. The compound in question is `COc1ccc(-c2c(C#N)cnc(N)c2-c2nc3cc(C)c(C)cc3[nH]2)cc1`
5.81 µM

====

# Test system: OVCAR-3 ovarian
# TEST_NAME: NCI tumour cell line growth inhibition, 48 h
MEASURED_ATTRIBUTE: TGI

Worked examples, 5 molecules total:
MOLECULE	MEASURED_ATTRIBUTE	EXPERIMENTAL_RESULT
O=C1CC2OCC=C3CN4CCC56c7ccccc7N1C5C2C3CC46 (configuration not stated) (tested in a mixture with another compound)	TGI	> 50 µg/mL
C#Cc1ccccc1N1C(=O)C=CC1=O	TGI	> 100 µM
COC1=CC(=O)C2C(C1=O)[C@@H]1c3ccccc3OC[C@H]21 (some centres not stated)	TGI	> 100 µM
CN(C)c1ccc(/C=N/NC(=O)c2cnc3ccccc3c2)cc1	TGI	> 100 µM
CC(C)(C)OC(=O)CC(NC(=O)OC(C)(C)C)C(=O)Oc1ccc([N+](=O)[O-])cc1 (configuration not stated)	TGI	> 100 µM

I'd like to know its TGI. The molecule in question is CN1C(=O)C(O)C[C@@H]1c1ccc(F)cc1 (some centres not stated)
> 100 µM

Try this molecule next: `COC(=O)c1ccccc1Nc1ccccc1C(=O)OC`
> 100 µM

Try this molecule next: COc1cc(C2S/C(=C/c3ccccc3)C(=O)N2c2ccccn2)cc(OC)c1OC (configuration not stated)
44.4 µM

====

# System: SK-OV-3 ovarian
# TEST_NAME: NCI tumour cell line growth inhibition, 48 h
# Lookup of reported TGI keyed by entry
Return type: number; implicit unit µM.

Worked examples, 4 compounds total:
COMPOUND	EXPERIMENTAL_RESULT
COc1ccc(OC)c(/C=C/C(=O)c2ccc3cc(OC)ccc3c2)c1	2.37
COC(=O)c1c(OC(C)=O)ccc2c1c1cc3ccccc3c(OC(C)=O)c1n2C	55.2
O=C1Cc2c([nH]c3cc(Br)ccc23)-c2ccccc2N1	58.8
Fc1ccc(C(OCCN2CCC3CCC(C2)N3C/C=C/c2cccnc2)c2ccc(F)cc2)cc1 (stereo not given)	29.3

Please find the next compound below.
Notebook: pull reported TGI for SK-OV-3 ovarian, entry `CCCCn1c2c(n(CCCC)c1=[Se])-c1c(n(CCCC)c(=[Se])n1CCCC)S[Se][Se]S2`
58

====

# System: HOP-62 NSCLC
# TEST_NAME: NCI tumour cell line growth inhibition, 48 h
MEASURED_ATTRIBUTE: TGI

COMPOUND	TGI
O=S1(=O)C=C(c2ccccc2)C(c2ccccc2)=C1	4.42 µM
CC(=O)Nc1cc(CN2CCCCC2)c(O)c2ncccc12	> 100 µM
COc1ccc(-c2cc3c(N)ncnc3o2)cc1	> 25 µM

I'd like to know its TGI. The compound in question is `O=C(O)CSc1nnc2c3ccccc3c3ccccc3c2n1`
> 100 µM

Try this compound next: `O=C1C=C(OCC=C(Cl)Cl)C(=O)c2ccccc21`
> 100 µM

Try this compound next: `CCOc1cc[n+](C(=C=[N-])C#N)cc1`
> 100 µM
